B1: CLK3 (parent)
chain: FGEDYYGPSRSRHRRRSRERGPYR

variants of: B1; assay: protein stability index of a GFP-peptide fusion (GPS, HEK-293T) (PSI 1-6); higher = more stable; conditions: c terminus: a fixed tail appended;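 further: lentivirally expressed fusions sorted by FACS into six bins by GFP to DsRed ratio, PSI derived from sequencing read proportions per bin multiplied by bin number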
assay endpoint: protein stability index
Please give the numeric answer without any surrounding text.

Solved entries:
seq string: FGEDYYGHSRSRHRRRSRERGPYR [P8H]
assay endpoint: protein stability index
reported value: 1.61
//
seq string: FGEDYYGKSRSRHRRRSRERGPYR [P8K]
assay endpoint: protein stability index
reported value: 1.58
//
seq string: FGEDYYGPSRSRHRRRSRERGPYM [R24M]
assay endpoint: protein stability index
reported value: 2.85

Entry FGEDYYHPSRSRHRRRSRERGPYR [G7H] has what protein stability index?
2.07

And for FGEDYYGPSRWRHRRRSRERGPYR [S11W] ?
2.3

Quick one: FGEDYYGPSRSSHRRRSRERGPYR [R12S]
2.1

How about FGEDYYGPSRNRHRRRSRERGPYR [S11N] ?
2.21

What do you get for FGEDYYGPCRSRHRRRSRERGPYR [S9C] ?
2.35
